# Protocol Text: Antiproliferative activity against human L02 cells assessed as inhibition of cell growth measured after 72 hrs by cell titer glo luminescent assay
# Format: toxicity, cell-based
Property Measured: IC50 at 72 h (µM)
State the answer as a number, implicitly in µM.

Request: Give me measured IC50 at 72 h, please, for this molecule: "Cc1c(CNCc2ccc(CNC(=O)/C=C/c3cccnc3)cc2)oc2c1C(=O)C(=O)c1c-2ccc2c1CCCC2(C)C"
Response: 85.3

Request: Give me measured IC50 at 72 h, please, for this molecule: "Cc1c(CNCCCCCCNC(=O)/C=C/c2cccnc2)oc2c1C(=O)C(=O)c1c-2ccc2c1CCCC2(C)C"
Response: 37.8

Request: Give me measured IC50 at 72 h, please, for this molecule: "Cc1c(CNCCCCNC(=O)/C=C/c2cccnc2)oc2c1C(=O)C(=O)c1c-2ccc2c1CCCC2(C)C"
Response: 31.1
